- Test system: 282377-053-R-J1-PDC complex spheroid viability
- METHOD DESCRIPTION: Anticancer human tumor 282377-053-R-J1-PDC patient-derived colon adenocarcinoma cell line growth inhibition [POLQ]
- MEASUREMENT CONDITIONS: curve of first compound; second compound 0.1 µM
Entries and their IC50

MOLECULE	IC50
CCc1c2c(nc3ccc(O)cc13)-c1cc3c(c(=O)n1C2)COC(=O)[C@]3(O)CC + Cc1cccc(N(C)C(=O)C2C(O)CCN2c2nc(C)cc(C(F)(F)F)c2C#N)c1	180 nM
CC[C@@]1(O)C(=O)OCc2c1cc1n(c2=O)Cc2cc3c(CN(C)C)c(O)ccc3nc2-1 + COC1C(OC(N)=O)C(O)C(Oc2ccc3c(O)c(NC(=O)c4ccc(O)c(CC=C(C)C)c4)c(=O)oc3c2C)OC1(C)C	> 100 nM
COc1cc2cc(C(=O)CCC(=O)O)sc2cc1OC + COC1C(OC(N)=O)C(O)C(Oc2ccc3c(O)c(NC(=O)c4ccc(O)c(CC=C(C)C)c4)c(=O)oc3c2C)OC1(C)C	> 10000 nM
CC1COCCN1c1cc(-c2ccnn2C)c2ccnc(-c3ccn[nH]3)c2n1 (stereo not given) + COC1C(OC(N)=O)C(O)C(Oc2ccc3c(O)c(NC(=O)c4ccc(O)c(CC=C(C)C)c4)c(=O)oc3c2C)OC1(C)C	398 nM
C=CCn1c(=O)c2cnc(Nc3ccc(N4CCN(C)CC4)cc3)nc2n1-c1cccc(C(C)(C)O)n1 + Cc1cccc(N(C)C(=O)C2C(O)CCN2c2nc(C)cc(C(F)(F)F)c2C#N)c1	> 1000 nM
CC(=O)O[C@H]1C(=O)[C@@]2(C)[C@H]([C@H](OC(=O)c3ccccc3)[C@]3(O)C[C@H](OC(=O)[C@H](O)[C@@H](NC(=O)c4ccccc4)c4ccccc4)C(C)=C1C3(C)C)[C@]1(OC(C)=O)CO[C@@H]1C[C@@H]2O + Nc1ccc(C#CCN(C(=O)Cc2ncc(C(F)(F)F)cc2C(F)(F)F)c2ccc(F)cc2)nn1	> 3000 nM
COc1ccc([C@@H](O)c2cc(-c3ncnc4cc(N5CCOCC5)ccc34)c(F)cc2Cl)nn1 + COC1C(OC(N)=O)C(O)C(Oc2ccc3c(O)c(NC(=O)c4ccc(O)c(CC=C(C)C)c4)c(=O)oc3c2C)OC1(C)C	> 10000 nM
C#Cc1c(F)ccc2cc(O)cc(-c3ncc4c(N5CC6CCC(C5)N6)nc(OCC56CCCN5CC(F)C6)nc4c3F)c12 (stereo not given) + Nc1ccc(C#CCN(C(=O)Cc2ncc(C(F)(F)F)cc2C(F)(F)F)c2ccc(F)cc2)nn1	> 10000 nM
Cn1ncnc1[C@H]1c2n[nH]c(=O)c3cc(F)cc(c23)N[C@@H]1c1ccc(F)cc1 + Cc1cccc(N(C)C(=O)C2C(O)CCN2c2nc(C)cc(C(F)(F)F)c2C#N)c1	> 100 nM
O=c1[nH]cc(F)c(=O)[nH]1 + Cc1cccc(N(C)C(=O)C2C(O)CCN2c2nc(C)cc(C(F)(F)F)c2C#N)c1	> 10000 nM

* * *

- System: 282377-053-R-J1-PDC complex spheroid viability
- METHOD DESCRIPTION: Anticancer human tumor 282377-053-R-J1-PDC cell line growth inhibition [POLQ];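 note: spheroids exposed to compounds for seven days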;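 for viability, T/C: 100% = DMSO vehicle control viability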
- MEASUREMENT CONDITIONS: second compound 0.316 µM; first compound 0.1 µM; stronger effect = lower value

COMPOUND	UNITS LABEL	viability, T/C
CNCc1ccc(-c2[nH]c3cc(F)cc4c3c2CCNC4=O)cc1 + Cc1cccc(N(C)C(=O)C2C(O)CCN2c2nc(C)cc(C(F)(F)F)c2C#N)c1	%	105
COc1cc2cc(C(=O)CCC(=O)O)sc2cc1OC + COC1C(OC(N)=O)C(O)C(Oc2ccc3c(O)c(NC(=O)c4ccc(O)c(CC=C(C)C)c4)c(=O)oc3c2C)OC1(C)C	%	102
C=CCn1c(=O)c2cnc(Nc3ccc(N4CCN(C)CC4)cc3)nc2n1-c1cccc(C(C)(C)O)n1 + Cc1cccc(N(C)C(=O)C2C(O)CCN2c2nc(C)cc(C(F)(F)F)c2C#N)c1	%	91.1

* * *

- Test system: 282377-053-R-J1-PDC complex spheroid viability
- METHOD DESCRIPTION: Anticancer human tumor 282377-053-R-J1-PDC cell line growth inhibition [POLQ];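 note: spheroids exposed to compounds for seven days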;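 for viability, T/C: 100% = DMSO vehicle control viability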
- MEASUREMENT CONDITIONS: second compound 0.0316 µM; first compound 0.316 µM; stronger effect = lower value
Entries and their viability, T/C

COMPOUND	viability, T/C, %
CC1COCCN1c1cc(C2(O)CC3CCC(C2)O3)c2cnn(-c3ccn[nH]3)c2n1 (stereo not given) + COC1C(OC(N)=O)C(O)C(Oc2ccc3c(O)c(NC(=O)c4ccc(O)c(CC=C(C)C)c4)c(=O)oc3c2C)OC1(C)C	53.8
CCc1cc2c(N3CCc4c(cc(Cn5ccnc5)cc4-c4cn(C)nc4C(F)(F)F)C3=O)cc(C)nc2c(OC)n1 + Nc1ccc(C#CCN(C(=O)Cc2ncc(C(F)(F)F)cc2C(F)(F)F)c2ccc(F)cc2)nn1	89
CCCS(=O)(=O)Nc1ccc(F)c(C(=O)c2c[nH]c3ncc(-c4ccc(Cl)cc4)cc23)c1F + Cc1cccc(N(C)C(=O)C2C(O)CCN2c2nc(C)cc(C(F)(F)F)c2C#N)c1	73.6
COc1ccc([C@@H](O)c2cc(-c3ncnc4cc(N5CCOCC5)ccc34)c(F)cc2Cl)nn1 + Nc1ccc(C#CCN(C(=O)Cc2ncc(C(F)(F)F)cc2C(F)(F)F)c2ccc(F)cc2)nn1	102
CC(C)n1c(=O)n(C)c2cnc3cc(F)c(-c4ccc(OCCCN5CCCCC5)nc4)cc3c21 + COC1C(OC(N)=O)C(O)C(Oc2ccc3c(O)c(NC(=O)c4ccc(O)c(CC=C(C)C)c4)c(=O)oc3c2C)OC1(C)C	113

* * *

- Test system: 282377-053-R-J1-PDC complex spheroid viability
- METHOD DESCRIPTION: Anticancer human tumor 282377-053-R-J1-PDC cell line growth inhibition [POLQ];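 note: spheroids exposed to compounds for seven days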;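 for viability, T/C: 100% = DMSO vehicle control viability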
- MEASUREMENT CONDITIONS: second compound 0.316 µM; first compound 0.0316 µM; stronger effect = lower value

COMPOUND	viability, T/C [%]
O=c1[nH]cc(F)c(=O)[nH]1 + COC1C(OC(N)=O)C(O)C(Oc2ccc3c(O)c(NC(=O)c4ccc(O)c(CC=C(C)C)c4)c(=O)oc3c2C)OC1(C)C	112
COc1cc(C2c3cc4c(cc3C(OC3OC5COC(C)OC5C(O)C3O)C3COC(=O)C23)OCO4)cc(OC)c1O (stereo not given) + COC1C(OC(N)=O)C(O)C(Oc2ccc3c(O)c(NC(=O)c4ccc(O)c(CC=C(C)C)c4)c(=O)oc3c2C)OC1(C)C	101
C=CC(=O)N1CCN(c2nc(=O)n(-c3c(C)ccnc3C(C)C)c3nc(-c4c(O)cccc4F)c(F)cc23)C(C)C1 (stereo not given) + Nc1ccc(C#CCN(C(=O)Cc2ncc(C(F)(F)F)cc2C(F)(F)F)c2ccc(F)cc2)nn1	90.4
CC(C)n1c(=O)n(C)c2cnc3cc(F)c(-c4ccc(OCCCN5CCCCC5)nc4)cc3c21 + Cc1cccc(N(C)C(=O)C2C(O)CCN2c2nc(C)cc(C(F)(F)F)c2C#N)c1	99.6
CC1COCCN1c1cc(-c2ccnn2C)c2ccnc(-c3ccn[nH]3)c2n1 (stereo not given) + Cc1cccc(N(C)C(=O)C2C(O)CCN2c2nc(C)cc(C(F)(F)F)c2C#N)c1	97

* * *

Entries and their viability, T/C
- System: 282377-053-R-J1-PDC complex spheroid viability
- METHOD DESCRIPTION: Anticancer human tumor 282377-053-R-J1-PDC cell line growth inhibition [POLQ];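 note: spheroids exposed to compounds for seven days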;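 for viability, T/C: 100% = DMSO vehicle control viability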
- MEASUREMENT CONDITIONS: second compound 3.16 µM; first compound 0.000316 µM; stronger effect = lower value

COMPOUND	viability, T/C
CC[C@@]1(O)C(=O)OCc2c1cc1n(c2=O)Cc2cc3c(CN(C)C)c(O)ccc3nc2-1 + Nc1ccc(C#CCN(C(=O)Cc2ncc(C(F)(F)F)cc2C(F)(F)F)c2ccc(F)cc2)nn1	95.8%
Cn1ncnc1[C@H]1c2n[nH]c(=O)c3cc(F)cc(c23)N[C@@H]1c1ccc(F)cc1 + COC1C(OC(N)=O)C(O)C(Oc2ccc3c(O)c(NC(=O)c4ccc(O)c(CC=C(C)C)c4)c(=O)oc3c2C)OC1(C)C	88.2%
Cn1ncnc1[C@H]1c2n[nH]c(=O)c3cc(F)cc(c23)N[C@@H]1c1ccc(F)cc1 + Cc1cccc(N(C)C(=O)C2C(O)CCN2c2nc(C)cc(C(F)(F)F)c2C#N)c1	106%
CC[C@@]1(O)C(=O)OCc2c1cc1n(c2=O)Cc2cc3c(CN(C)C)c(O)ccc3nc2-1 + COC1C(OC(N)=O)C(O)C(Oc2ccc3c(O)c(NC(=O)c4ccc(O)c(CC=C(C)C)c4)c(=O)oc3c2C)OC1(C)C	102%
Cn1ncnc1[C@H]1c2n[nH]c(=O)c3cc(F)cc(c23)N[C@@H]1c1ccc(F)cc1 + Nc1ccc(C#CCN(C(=O)Cc2ncc(C(F)(F)F)cc2C(F)(F)F)c2ccc(F)cc2)nn1	105%
CC[C@@]1(O)C(=O)OCc2c1cc1n(c2=O)Cc2cc3c(CN(C)C)c(O)ccc3nc2-1 + Cc1cccc(N(C)C(=O)C2C(O)CCN2c2nc(C)cc(C(F)(F)F)c2C#N)c1	97.5%
